EXPERIMENTAL_SYSTEM: CDK9/cyclin T (Homo sapiens, UniProt P50750)
Construct: made in house; host or cells: Sf9 insect cells, baculovirus co-infection
Sequence (P50750 whole entry, species assumed): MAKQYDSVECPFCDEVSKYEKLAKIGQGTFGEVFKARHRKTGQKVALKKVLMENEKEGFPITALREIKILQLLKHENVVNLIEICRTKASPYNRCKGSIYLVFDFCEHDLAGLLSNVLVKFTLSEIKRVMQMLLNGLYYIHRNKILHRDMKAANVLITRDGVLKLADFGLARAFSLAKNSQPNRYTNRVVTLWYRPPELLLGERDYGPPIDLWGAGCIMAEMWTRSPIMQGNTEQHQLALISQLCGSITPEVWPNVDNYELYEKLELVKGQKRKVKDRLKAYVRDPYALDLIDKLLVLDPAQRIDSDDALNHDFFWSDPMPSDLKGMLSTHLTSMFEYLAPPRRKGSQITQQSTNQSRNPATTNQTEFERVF
Sequence (O60563 whole entry partner, species assumed): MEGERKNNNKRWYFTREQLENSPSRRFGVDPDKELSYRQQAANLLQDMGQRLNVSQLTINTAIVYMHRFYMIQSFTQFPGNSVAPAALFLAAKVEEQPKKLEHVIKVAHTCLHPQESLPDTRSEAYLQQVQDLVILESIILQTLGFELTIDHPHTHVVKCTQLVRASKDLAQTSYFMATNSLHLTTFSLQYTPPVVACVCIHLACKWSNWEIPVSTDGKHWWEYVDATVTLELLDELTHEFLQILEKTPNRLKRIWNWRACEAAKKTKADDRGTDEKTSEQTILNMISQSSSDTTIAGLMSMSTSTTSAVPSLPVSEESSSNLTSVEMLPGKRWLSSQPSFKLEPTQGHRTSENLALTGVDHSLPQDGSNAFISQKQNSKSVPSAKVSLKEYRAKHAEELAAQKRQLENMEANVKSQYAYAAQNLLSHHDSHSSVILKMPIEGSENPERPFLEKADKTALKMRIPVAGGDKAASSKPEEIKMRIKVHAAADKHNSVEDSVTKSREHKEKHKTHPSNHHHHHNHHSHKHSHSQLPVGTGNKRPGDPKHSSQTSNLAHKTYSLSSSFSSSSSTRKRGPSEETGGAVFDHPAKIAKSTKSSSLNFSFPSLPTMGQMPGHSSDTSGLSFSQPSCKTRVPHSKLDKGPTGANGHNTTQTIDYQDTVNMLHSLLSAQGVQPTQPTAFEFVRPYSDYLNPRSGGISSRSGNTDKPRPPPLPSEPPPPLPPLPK
ASSAY_INFO: CDK9/cyclin T kinase inhibition assay
Assay type: biochemical
CONDITIONS_USED: kinase inhibitory activity, 15 μM ATP, (YSPTSPS)3 peptide substrate
Description: Selected compounds were tested for CDK1/cyclin B, CDK2/cyclin E, CDK5/p25, CDK7/cyclin H and CDK9/cyclin T inhibitory activity to determine the basic relationships between their structure and the inhibitory activity. […] The kinase activity was expressed as a percentage of maximum activity and the IC50 value was determined by graphic analysis. The kinase activity is expressed as a percentage of maximum activity (FIG. 1).
ASSAY_METRIC: IC50 (µM)

Here's what some known entries look like.
Which IC50 is listed for CCC(CO)Nc1nc(NCc2cccc(OC)c2O)c2ncn(C(CC)CC)c2n1 (centres unmarked) ?
0.02

What measured IC50 goes with COc1cccc(CNc2nc(NC3CCCCC3N)nc3c2ncn3C)c1O (centres unmarked) ?
0.19

(P) CCn1cnc2c(NCc3cc(F)ccc3O)nc(NC3CCC(N)CC3)nc21 (centres unmarked)
(Q) CCC(CO)Nc1nc(NCc2cc(Cl)ccc2O)c2ncn(C(CC)CC)c2n1 (centres unmarked)
(R) Cn1cnc2c(NCc3cc(F)ccc3O)nc(NC3CCCCC3N)nc21 (centres unmarked)
# rank_down: sort by IC50, max first In your reply, arrange the labels in the requested order.
R, P, Q
